# Assay remarks: recombinant UMI read abundance after kanamycin selection (control-corrected) (log10(CPM+1)); higher = more efficient recombination; extreme values may be limits of the assay; sequences stand for … in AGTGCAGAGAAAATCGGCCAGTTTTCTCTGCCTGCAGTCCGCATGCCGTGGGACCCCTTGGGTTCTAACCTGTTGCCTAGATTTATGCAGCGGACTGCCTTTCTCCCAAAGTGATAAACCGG…AGGTTGGTTTCACT; site = the 11-nt donor;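 note: IS621 bridge recombinase in Escherichia coli cells against a fixed T5 target plasmid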
Overview of recorded recombinant UMI read abundance (log10) for various sequences
Endpoint name: recombinant UMI read abundance (log10)

[[record]]
monomer_sequence = "ATATAGGCATGGACCGGTTTTCCCGGTAATCCGTATTTGGC (site ATCTAGGCTGC)"
endpoint_name = "recombinant UMI read abundance (log10)"
recorded_measurement = 1.31

[[record]]
monomer_sequence = "GATTGTACATGGACCGGTTTTCCCGGTAATCCGTATTTGAC (site GATTGTACTGT)"
endpoint_name = "recombinant UMI read abundance (log10)"
recorded_measurement = 0.604

[[record]]
monomer_sequence = "GACTGGCCATGGACCGGTTTTCCCGGTAATCCGTATTTGCA (site GACTGGCCTTG)"
endpoint_name = "recombinant UMI read abundance (log10)"
recorded_measurement = 0

[[record]]
monomer_sequence = "GCCTCCTCATGGACCGGTTTTCCCGGTAATCCGTATTTGCT (site GCCTCCTCTAG)"
endpoint_name = "recombinant UMI read abundance (log10)"
recorded_measurement = 2.9

[[record]]
monomer_sequence = "ATTGAGACATGGACCGGTTTTCCCGGTAATCCGTATTTGGG (site ATTGAGACTCC)"
endpoint_name = "recombinant UMI read abundance (log10)"
recorded_measurement = 0.0142


----------
# Assay remarks: recombinant UMI read abundance after kanamycin selection (control-corrected) (log10(CPM+1)); higher = more efficient recombination; extreme values may be limits of the assay; sequences stand for … in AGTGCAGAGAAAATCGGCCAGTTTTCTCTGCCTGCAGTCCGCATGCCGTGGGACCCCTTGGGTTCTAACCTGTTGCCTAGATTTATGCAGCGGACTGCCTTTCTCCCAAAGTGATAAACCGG…AGGTTGGTTTCACT; site = the 11-nt donor
Endpoint name: recombinant UMI read abundance (log10)

[[record]]
monomer_sequence = "CCCGGTCCATGGACCGGTTTTCCCGGTAATCCGTATTTGTA (site CCCGGTCCTTA)"
recorded_measurement = 0

[[record]]
monomer_sequence = "TGTACACCATGGACCGGTTTTCCCGGTAATCCGTATTTGCC (site TGTACACCTGG)"
recorded_measurement = 0

[[record]]
monomer_sequence = "AGGCCTACATGGACCGGTTTTCCCGGTAATCCGTATTTGAC (site AGGCCTACTGT)"
recorded_measurement = 2.67

[[record]]
monomer_sequence = "AAAGAGGCATGGACCGGTTTTCCCGGTAATCCGTATTTGCA (site AAAGAGGCTTG)"
recorded_measurement = 2.9

[[record]]
monomer_sequence = "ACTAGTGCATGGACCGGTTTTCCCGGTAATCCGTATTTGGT (site AATAGTGCTAC)"
recorded_measurement = 0.282

[[record]]
monomer_sequence = "AATTAGGCATGGACCGGTTTTCCCGGTAATCCGTATTTGGA (site AATTACGCTTC)"
recorded_measurement = 0.011

[[record]]
monomer_sequence = "ACTACTGCATGGACCGGTTTTCCCGGTAATCCGTATTTGCC (site GCTACTGCTGG)"
recorded_measurement = 0.946

[[record]]
monomer_sequence = "ATATAGGCATGGACCGGTTTTCCCGGTAATCCGTATTTGGC (site ATATAGGCTGC)"
recorded_measurement = 2.39

[[record]]
monomer_sequence = "AGGAATGCATGGACCGGTTTTCCCGGTAATCCGTATTTGCA (site AGGAAGACTTG)"
recorded_measurement = 0

[[record]]
monomer_sequence = "CCCATCTCATGGACCGGTTTTCCCGGTAATCCGTATTTGGG (site CCCTTCTCTCC)"
recorded_measurement = 0.0111

[[record]]
monomer_sequence = "ACTGATGCATGGACCGGTTTTCCCGGTAATCCGTATTTGAC (site ACTGATGCTGT)"
recorded_measurement = 2.08

[[record]]
monomer_sequence = "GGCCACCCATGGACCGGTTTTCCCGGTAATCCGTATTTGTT (site GGTCACCCTAA)"
recorded_measurement = 0.0101

[[record]]
monomer_sequence = "CATTTGGCATGGACCGGTTTTCCCGGTAATCCGTATTTGCT (site CCTTTGGCTAG)"
recorded_measurement = 0

[[record]]
monomer_sequence = "AAGCTAGCATGGACCGGTTTTCCCGGTAATCCGTATTTGAA (site TAGCTAGCTTT)"
recorded_measurement = 1.48

[[record]]
monomer_sequence = "TGCCGATCATGGACCGGTTTTCCCGGTAATCCGTATTTGCG (site TGCCGATCTCG)"
recorded_measurement = 0.225

[[record]]
monomer_sequence = "TGGTTCGCATGGACCGGTTTTCCCGGTAATCCGTATTTGGA (site TGGTTCGCTTC)"
recorded_measurement = 0.00761

[[record]]
monomer_sequence = "GGTACGGCATGGACCGGTTTTCCCGGTAATCCGTATTTGTT (site GGTACGGCTAA)"
recorded_measurement = 0.0127

[[record]]
monomer_sequence = "GGCGTGGCATGGACCGGTTTTCCCGGTAATCCGTATTTGCA (site GGCGTGGCTTG)"
recorded_measurement = 2.55

